- Test system: OVCAR-8
- assay-comment: NCI tumour cell line growth inhibition, 48 h
Active and inactive are the calls of the source. Cut-off read from the data, not from the text of the source: active = GI50 up to about 1.1 µM and inactive = higher.
Labels: true (active), false (inactive)

{"compound": "O=C(Nn1c(-c2ccccc2)nc2ccccc2c1=O)c1cccc([N+](=O)[O-])c1", "cat": "false"}
{"compound": "O=C(Cn1c2c(c3ccccc31)CCCC2)N1CCCCC1", "cat": "false"}
{"compound": "O=C/C=C/c1ccco1", "cat": "false"}
{"compound": "COC(=O)[C@@]1(O)CC(C)C=C1C=O (stereo partly drawn)", "cat": "false"}
{"compound": "S=C1ON=C(c2ccccc2)/C1=C/Nc1ccccc1", "cat": "false"}
{"compound": "CSc1nc2c(nc(N)n2C2OC(COC(C)=O)C(OC(C)=O)C(OC(C)=O)C2OC(C)=O)c(=O)n1C (stereo not drawn)", "cat": "false"}
{"compound": "COC(=O)C1N=CSCC1(C)O (stereo not drawn)", "cat": "false"}
{"compound": "CC1OC(OC2C(CO)OC(O[C@H]3CC[C@@]4(C)C(=CC[C@H]5[C@@H]6C[C@@H]7O[C@](O)(CC[C@H](CO)COC8OC(CO)C(O)C(O)C8O)[C@@H](C)[C@@H]7[C@@]6(C)CC[C@@H]54)C3)C(OC3OC(C)C(O)C(O)C3O)C2O)C(O)C(O)C1O (stereo partly drawn)", "cat": "false"}
{"compound": "C#CCOC(=O)C(N)C(C)O (stereo not drawn)", "cat": "false"}
{"compound": "CC1C(=O)C(C)C(c2ccccc2)N(N=O)C1c1ccccc1 (stereo not drawn)", "cat": "false"}
{"compound": "COC(=O)c1nsc(OC)c1Cl", "cat": "false"}
{"compound": "NC(=O)C(=O)C1C(=O)N(c2ccccc2)N=C1N (stereo not drawn)", "cat": "false"}
{"compound": "COC(=O)/C=C1/OC(c2ccc(C)cc2C)=CC1=O", "cat": "false"}
{"compound": "CCOc1ccc(C(C)c2cc3c(cc2OC)OCO3)cc1 (stereo not drawn)", "cat": "true"}
{"compound": "c1cc2c(cc1NC1=NCCO1)CCCC2", "cat": "false"}
{"compound": "CC(C)OC(=O)c1cccnc1/C=N/O", "cat": "false"}
{"compound": "O=S(=O)(c1ccccc1)n1c2cc3cccnc3nc2c2cccnc21", "cat": "false"}
{"compound": "NS(=O)(=O)c1ccc(/N=N/c2ncccc2O)cc1", "cat": "false"}
{"compound": "Cc1ccc(/N=N/c2c(C)nn(-c3ccccc3)c2-c2ccccc2)c(Br)c1", "cat": "false"}
{"compound": "Cn1c2ccccc2c2[nH]cc3nc4ccccc4c-3c21", "cat": "false"}
{"compound": "O=S(=O)(O)C1CCC(O)C2NCCCC21 (stereo not drawn)", "cat": "false"}
{"compound": "CC(=O)N(CN1C(=O)CCC1C(=O)O)c1ccccc1 (stereo not drawn)", "cat": "false"}
{"compound": "COc1ccc2c(c1)c1nn(CCN(C)C)c3ccc4c(=O)n(CCN(C)C)c(=O)n2c4c13", "cat": "true"}

* * *

- Tested on: EKVX
- assay-comment: NCI tumour cell line growth inhibition, 48 h
Active and inactive are the calls of the source. Rule as the data show it: active = GI50 up to about 1.1 µM and inactive = higher.
Labels: true (1) for active, false (0) for inactive

{"molecule": "COc1ccc2c(c1)C1=NCCN(CCO)c3ccc([N+](=O)[O-])c(c31)N2", "cat": "true (1)"}
{"molecule": "CC1(C)CC(=O)C2=C(C1)NC(=S)C(C#N)C2c1ccccc1 (stereo not drawn)", "cat": "false (0)"}
{"molecule": "CC(C)(C)OC(=O)NCC(=O)N1CCN(C(=O)CNC(=O)OC(C)(C)C)CC1", "cat": "false (0)"}
{"molecule": "CC1OC(OC2C(CO)OC(O[C@H]3CC[C@@]4(C)C(=CC[C@H]5[C@@H]6C[C@@H]7O[C@](O)(CC[C@H](CO)COC8OC(CO)C(O)C(O)C8O)[C@@H](C)[C@@H]7[C@@]6(C)CC[C@@H]54)C3)C(OC3OC(C)C(O)C(O)C3O)C2O)C(O)C(O)C1O (stereo partly drawn)", "cat": "false (0)"}
{"molecule": "CCOC(=O)Cc1c(C(=O)OCC)[n+]([O-])c2cc(Cl)c(Cl)cc2[n+]1[O-]", "cat": "false (0)"}
{"molecule": "O=C(/C=C/c1ccc(Cl)c(Cl)c1)Oc1ccc(/C=C2\\CCCCC2=O)cc1", "cat": "false (0)"}
{"molecule": "COc1ccc(C(=O)OC2C=COC(C)C2OC(=O)c2ccc(OC)cc2)cc1 (stereo not drawn)", "cat": "false (0)"}
{"molecule": "Cc1ccc(/N=N/c2c(C)nn(-c3ccccc3)c2-c2ccccc2)c(Br)c1", "cat": "false (0)"}

* * *

- Test system: SW-620
- assay-comment: NCI tumour cell line growth inhibition, 48 h
The source made the active and inactive calls. No stated cut-off is given here; in the data, active = GI50 up to about 1.1 µM and inactive = higher. Where a SMILES comes first, the peptide text is derived from it. [ ]: non-standard residue; d: D form. The star is where a group is joined. ξ: configuration not given here. ξPhe(4-NO2) = NC(Cc1ccc([N+](=O)[O-])cc1)C(=O)O; Boc = CC(C)(C)OC(=O)*
Labels: active, inactive

{"molecule": "COC(=O)CCc1c(Cc2ccc[nH]2)[nH]c(C(=O)OCc2ccccc2)c1C", "cat": "inactive"}
{"molecule": "CC1(C)CC2=NO[Se]3=C2C(=NO3)C1", "cat": "inactive"}
{"molecule": "COc1ccc2nc3ccccc3c(NCCCN(C)CCCl)c2c1", "cat": "active"}
{"molecule": "Cc1ccc2nc(Cl)c(/C=N/N3C(=O)/C(=C/c4ccc(N(C)C)cc4)N=C3c3ccccc3)cc2c1", "cat": "inactive"}
{"molecule": "CC1=CCCC2C1(C)CCC(C)C2(C)Cc1cc(O)ccc1O (stereo not drawn)", "cat": "inactive"}
{"molecule": "COc1cc2c(cc1O)C(C)Cc1cc3c(cc1N(C)CC2)OCO3 (stereo not drawn)", "cat": "inactive"}
{"molecule": "COc1ccc(C2CC(c3ccc4ccccc4c3O)=NN2C(C)=O)cc1OC (stereo not drawn)", "cat": "inactive"}
{"molecule": "CC(C)(C)c1cc(O)c2c(c1O)C(=O)CCC2", "cat": "inactive"}
{"molecule": "C#CCOC(=O)c1ccc(OC(C)=O)cc1", "cat": "inactive"}
{"molecule": "C#CCOC(=O)C(N)C(C)O (stereo not drawn)", "cat": "inactive"}
{"molecule": "O=C(O)c1nc2ccccc2nc1Nc1ccc(Cl)c(Cl)c1", "cat": "inactive"}
{"molecule": "CCNC(=O)CNC(=O)C(Cc1ccc([N+](=O)[O-])cc1)NC(=O)OC(C)(C)C (stereo not drawn) (Boc-[ξPhe(4-NO2)]-Gly-NHEt)", "cat": "inactive"}
{"molecule": "Cn1c(-c2ccc(C=O)o2)ccc1-c1ccc(C=O)o1", "cat": "inactive"}
{"molecule": "CC(=O)OC(Cn1cncn1)(Cn1cncn1)c1ccc(Cl)cc1Cl", "cat": "inactive"}
{"molecule": "O=c1n(CC2CO2)c2ccccc2n1CC1CS1 (stereo not drawn)", "cat": "inactive"}
{"molecule": "COC(=O)C1=C(C(=O)OC)C2=S(SC3=C2CCCC3)S1 (stereo not drawn)", "cat": "active"}
{"molecule": "O=C1CCCCC1CN1CCCCC1 (stereo not drawn)", "cat": "inactive"}
{"molecule": "O=C1C[C@@H](Sc2ccccc2)C2(OCCO2)C2ON3CCCC[C@H]3[C@H]12 (stereo partly drawn)", "cat": "inactive"}
{"molecule": "CCCCCCCCCCCCCCCCCCNc1ccn(C2OC(CO)C(O)C2O)c(=O)n1 (stereo not drawn)", "cat": "inactive"}
{"molecule": "O=C(/C=C/c1ccc(Cl)c(Cl)c1)Oc1ccc(/C=C2\\CCCCC2=O)cc1", "cat": "inactive"}
{"molecule": "C[C@@H]1O[C@@H]2OCC[C@@H]2C2=C1C(=O)c1ccccc1C2=O", "cat": "inactive"}
{"molecule": "O=C1C[C@H]2[C@@H](O1)[C@@H](O)CN1C(=O)c3ccccc3[C@H]21", "cat": "inactive"}
{"molecule": "Nc1ccc(Cc2ccc(N)c(C(=O)O)c2)cc1C(=O)O", "cat": "inactive"}

* * *

- Tested on: SF-295
- assay-comment: NCI tumour cell line growth inhibition, 48 h
Calls of active or inactive are those of the source. Cut-off read from the data, not from the text of the source: active = GI50 up to about 1.1 µM and inactive = higher.

{"compound": "C=CCNS(=O)(=O)c1ncnc2[nH]cnc12", "measured-target": "SF-295", "GI50": "> 100 µM (inactive)"}
{"compound": "CCCCCCCCCCCCC/C=C1\\C[C@H](O)COC1=O", "measured-target": "SF-295", "GI50": "18.1 µM (inactive)"}
{"compound": "CC(=O)N1N=C(c2ccccc2Nc2ccccc2C2=NN(C(C)=O)C(c3ccccc3)O2)OC1c1ccccc1 (stereo not drawn)", "measured-target": "SF-295", "GI50": "32.8 µM (inactive)"}
{"compound": "CCOP(=O)(OCC)C(NC(=O)C(C(F)(F)F)C(F)(F)F)c1ccccc1 (stereo not drawn)", "measured-target": "SF-295", "GI50": "> 100 µM (inactive)"}
{"compound": "CSC(=S)N/N=C/c1nccc2ccccc12", "measured-target": "SF-295", "GI50": "1.48 µM (inactive)"}
{"compound": "CCOC(=O)c1csc(NC(=O)CN(C)C)n1", "measured-target": "SF-295", "GI50": "> 100 µM (inactive)"}
{"compound": "CC(=O)OCCOCNC(=S)N/N=C/c1cc(Br)cs1", "measured-target": "SF-295", "GI50": "> 100 µM (inactive)"}
{"compound": "CCOC(=O)c1ccc(NC(NC(=O)CC)(C(F)(F)F)C(F)(F)F)cc1", "measured-target": "SF-295", "GI50": "> 100 µM (inactive)"}
{"compound": "Clc1ccccc1C(c1ccccc1)(c1ccccc1)n1ccnc1", "measured-target": "SF-295", "GI50": "9.95 µM (inactive)"}
{"compound": "Cc1ncc([N+](=O)[O-])n1CCNC(=O)Cn1ccnc1[N+](=O)[O-]", "measured-target": "SF-295", "GI50": "> 100 µM (inactive)"}
{"compound": "NC(CCP(=O)(O)O)C(=O)O (stereo not drawn)", "measured-target": "SF-295", "GI50": "> 100 µM (inactive)"}
{"compound": "CCCc1c(OC)c(=O)c2c(OC)cc(OC)c3c4c(OC)cc(OC)c5c(=O)c(OC)c(CCC)c(c1c23)c54", "measured-target": "SF-295", "GI50": "17.8 µM (inactive)"}
{"compound": "CCOC(=O)c1c(O)cc(=O)[nH]c1N1CCOCC1", "measured-target": "SF-295", "GI50": "> 100 µM (inactive)"}
{"compound": "COC1(OC)c2ccccc2C2(O)c3ccccc3C(=O)C12 (stereo not drawn)", "measured-target": "SF-295", "GI50": "54 µM (inactive)"}
{"compound": "CCCC(O)[C@@H](O)c1ccc2c(c1O)C(=O)c1c(OC)cccc1C2=O (stereo partly drawn)", "measured-target": "SF-295", "GI50": "33 µM (inactive)"}
{"compound": "C[N+](C)(C)CC1CCC(C[N+](C)(C)C)C1=O (stereo not drawn)", "measured-target": "SF-295", "GI50": "20.5 µM (inactive)"}
{"compound": "CC(=O)ON(C(C)=O)c1ccc(-c2nc3ccccc3s2)cc1", "measured-target": "SF-295", "GI50": "30.1 µM (inactive)"}
{"compound": "CC1=C(C(=O)Nc2cc(F)c(F)cc2F)C(c2ccc3c(c2)OCO3)C(C(=O)Nc2cc(F)c(F)cc2F)=C(C)N1", "measured-target": "SF-295", "GI50": "21.9 µM (inactive)"}

Origin of values: ChEMBL document CHEMBL1201862
